Reference for the values: patent US9212146B2

# System: SMMC-7721 liver cancer cells
# runDescription: SRB assay Example 17, SMMC-7721
# Assay type: cell-based
# setupConditions: Homo sapiens, 72 h

smilesString: CN1CCN(c2ccc(-c3ccc(=O)[nH]n3)cc2C(F)(F)F)CC1
testedSystem: SMMC-7721 liver cancer cells
IC50 (nM): 10

* * *

# System: human liver cancer cells Bel-7402 transplanted tumor
# Assay type: in vivo
# setupConditions: at the 11th day; intragastrically once a day for 11 days
Examples of molecules with documented tumors vanished (animals/group) follow.
testReadout: tumors vanished (animals/group)

smilesString: O=c1ccc(-c2ccc(N3CCC(O)CC3)c(C(F)(F)F)c2)n[nH]1
testReadout: tumors vanished (animals/group)
valueMeasured: 5/5
--
smilesString: O=c1ccc(-c2ccc(N3CCCCC3)c(C(F)(F)F)c2)n[nH]1
testReadout: tumors vanished (animals/group)
valueMeasured: 5/5
--
smilesString: CCNc1ccc(-c2ccc(=O)[nH]n2)cc1C(F)(F)F
testReadout: tumors vanished (animals/group)
valueMeasured: 4/5
--
smilesString: O=c1ccc(-c2ccc(N3CCOCC3)c(C(F)(F)F)c2)n[nH]1
testReadout: tumors vanished (animals/group)
valueMeasured: 5/5
--
smilesString: CN1CCN(c2ccc(-c3ccc(=O)[nH]n3)cc2C(F)(F)F)CC1
testReadout: tumors vanished (animals/group)
valueMeasured: 5/5

* * *

# Tested on: HeLa cervical carcinoma cells
# runDescription: SRB assay Example 17, HeLa
# Type: cell-based
# setupConditions: Homo sapiens, 72 h

compound: CN1CCN(c2ccc(-c3ccc(=O)[nH]n3)cc2C(F)(F)F)CC1 [YHHU-756]
uom: nM
IC50: 20

* * *

# Tested on: human renal carcinoma cell line A498
# runDescription: SRB proliferation assay, A498
# Format: cell-based
# setupConditions: 72 hours
# Experimental: Protocol: the antineoplasmic activities in vitro of the compounds were assayed by a Sulforhodamine B (SRB) protocol. Tumor cells were cultivated at 37 under 5% CO2 in a RPMI 1640 medium or a DMEM medium (Gibco) containing 10% fetal bovine serum. […] IC50 (50% inhibitory concentration) was calculated by using Logit method based on the inhibition rates at various concentration, and the results are shown in tables 1 and 2. […]
pIC50: −log10 of the molar value.
testReadout: pIC50

compound: O=c1ccc(-c2ccc(N3CCCC3)c(C(F)(F)F)c2)n[nH]1 [YHHU-646]
testReadout: pIC50
valueMeasured: 5.39

* * *

# Tested on: Bel-7404 liver cancer cells
# runDescription: SRB assay Example 17, Bel-7404
# Assay type: cell-based
# setupConditions: Homo sapiens, 72 h
pIC50: −log10 of the molar value.

compound: CN1CCN(c2ccc(-c3ccc(=O)[nH]n3)cc2C(F)(F)F)CC1 [YHHU-756]
testedSystem: Bel-7404 liver cancer cells
pIC50: 6.39

* * *

# System: human colon cancer cell line SW-620
# runDescription: SRB proliferation assay, SW-620
# Format: cell-based
# setupConditions: SW-620, colon carcinoma, 72 hours

smilesString: O=c1ccc(-c2ccc(N3CCCC3)c(C(F)(F)F)c2)n[nH]1
IC50 / µM: 5.8

* * *

# Tested on: A549 lung cancer cells
# runDescription: SRB assay Example 17, A549
# Type: cell-based
# setupConditions: Homo sapiens, 72 h
pIC50: −log10 of the molar value.

smilesString: CN1CCN(c2ccc(-c3ccc(=O)[nH]n3)cc2C(F)(F)F)CC1
pIC50: 4.88
